Overview of recorded IC50 for various molecules
- System: wild-type IDH1 (αKG) in HT1080 cells
- Assay Notes: HT1080 cell assay, intracellular αKG
- Format: cell-based
- Assay Conditions: highest concentration tested shown if curve did not reach 50%
Measurement Type: IC50

Molecule	Result
C=CC(=O)N1CCN(C(CC2CC2)c2ccc([C@H](C)Nc3cc4c(cn3)COC(=O)N4C)cc2)CC1 (single isomer, unassigned) [Example 9]	> 20000 nM
C=CC(=O)N1CCN(C(CC2CC2)c2ccc([C@H](C)Nc3ncc4c(n3)N(C)C(=O)OC4)cc2)CC1 (single isomer, unassigned) [Example 3]	> 200 nM
C=CC(=O)N1CCN(C(CC2CC2)c2ccc([C@H](C)Nc3cc4c(cn3)COC(=O)N4C)cc2)CC1 (single isomer, unassigned) [Example 10]	> 20000 nM
C=CC(=O)N1CCN(C(CC2CC2)c2ccc([C@H](C)Nc3ncc4c(n3)N(C)C(=O)OC4)cc2)CC1 (single isomer, unassigned) [Example 4]	> 200 nM
C=CC(=O)N1CCN(C(CC(C)C)c2ccc([C@H](C)Nc3ncc4c(n3)N(CC)C(=O)OC4)cc2)CC1 (single isomer, unassigned) [Example 8]	> 200 nM
C=CC(=O)N1CCN(C(CC(C)C)c2ccc([C@H](C)Nc3ncc4c(n3)N(CC)C(=O)OC4)cc2)CC1 (single isomer, unassigned) [Example 7]	> 200 nM

meta.source: patent US11629156B2
